Taken from patent US5925632A.

- Tested on: M. morganii 6H-137
observation-type: MIC (µg/mL)
All answers are understood in µg/mL, so give the number only.

Looking for the measured MIC of Nc1nc(/C(=N/O)C(=O)N[C@@H]2C(=O)N3C(C(=O)O)=C(/C=C4\CCN(CC5CCCCC5)C4=O)CS[C@H]23)cs1 , can you help?
4

Fill in: MIC of CC(C)CN1CC/C(=C\C2=C(C(=O)O)N3C(=O)[C@@H](NC(=O)/C(=N\O)c4csc(N)n4)[C@H]3SC2)C1=O.O=C(O)C(F)(F)F is ___
0.25

Sample C=CC1=C(C(=O)O)N2C(=O)[C@@H](NC(=O)/C(=N\O)c3csc(N)n3)[C@H]2SC1 [Cefdinir, reference compound] — what was its MIC?
8

Field request: MIC | item: CC(C)(C)CN1CC/C(=C\C2=C(C(=O)O)N3C(=O)[C@@H](NC(=O)/C(=N\O)c4csc(N)n4)[C@H]3SC2)C1=O
0.5
